- Test protocol: Phase 1 clinical study, pharmacokinetics of granisetron after intravenous and intranasal administration
- Format: in vivo, human
- Stated conditions: male, human, plasma, inhaled or intranasal, 2 mg, intranasal, 0.5, 1.0 and 2.0 mg doses together; read-out: overall mean Tmax
Recorded endpoint: Tmax (min)
Numeric only. Scale: min

Fill in: Tmax of CN1C2CCCC1CC(NC(=O)c1nn(C)c3ccccc13)C2 (stereo not shown) is ___
45

====

- Test protocol: Phase 1 clinical study, pharmacokinetics of granisetron after intravenous and intranasal administration
- Format: in vivo, human
- Stated conditions: male, human, plasma, inhaled or intranasal; after intranasal administration, all dose levels; read-out: overall mean half-life (converted)
Recorded endpoint: half-life
Param answer (str): number followed by unit.

Fill in: half-life of CN1C2CCCC1CC(NC(=O)c1nn(C)c3ccccc13)C2 (stereo not shown) is ___
9.23 h

====

- Test protocol: Phase 1 clinical study, pharmacokinetics of granisetron after intravenous and intranasal administration
- Type: in vivo, human
- Stated conditions: human, plasma, 10 ug/kg; intravenous 10 μg/kg (Kytril), healthy male volunteers, mean, N=8
Recorded endpoint: AUC(0-inf)

Fill in: AUC(0-inf) of CN1C2CCCC1CC(NC(=O)c1nn(C)c3ccccc13)C2 (stereo not shown) [Granisetron] is ___
103 ng·h/mL

====

- Test protocol: Phase 1 clinical study, pharmacokinetics of granisetron after intravenous and intranasal administration
- Type: in vivo, human
- Stated conditions: male, human, plasma, inhaled or intranasal, 1 mg, intranasal 1.0 mg (TRG capsule, single nostril), healthy male volunteers, mean; read-out: Tmax
Recorded endpoint: Tmax (min)
Numeric only. Scale: min

Fill in: Tmax of CN1C2CCCC1CC(NC(=O)c1nn(C)c3ccccc13)C2 (stereo not shown) is ___
20.4

====

- Test protocol: Phase 1 clinical study, pharmacokinetics of granisetron after intravenous and intranasal administration
- Assay type: in vivo, human
- Stated conditions: human, plasma, 10 ug/kg; intravenous 10 μg/kg (Kytril), healthy male volunteers, mean, N=8
Recorded endpoint: AUC(0-t) (ng·h/mL)
Numeric only. Scale: ng·h/mL

Fill in: AUC(0-t) of CN1C2CCCC1CC(NC(=O)c1nn(C)c3ccccc13)C2 (stereo not shown) is ___
92.4

====

- Test protocol: Phase 1 clinical study, pharmacokinetics of granisetron after intravenous and intranasal administration
- Assay type: in vivo, human
- Stated conditions: human, plasma, inhaled or intranasal; intranasal 2.0 mg (TRG capsule, single nostril), healthy male volunteers, mean
Recorded endpoint: Cmax (ng/mL)
Numeric only. Scale: ng/mL

Fill in: Cmax of CN1C2CCCC1CC(NC(=O)c1nn(C)c3ccccc13)C2 (stereo not shown) is ___
26.6

====

- Test protocol: Phase 1 clinical study, pharmacokinetics of granisetron after intravenous and intranasal administration
- Format: in vivo, human
- Stated conditions: human, plasma, inhaled or intranasal; intranasal 1.0 mg (TRG capsule, single nostril), healthy male volunteers, mean
Recorded endpoint: Cmax (ng/mL)
Numeric only. Scale: ng/mL

Fill in: Cmax of CN1C2CCCC1CC(NC(=O)c1nn(C)c3ccccc13)C2 (stereo not shown) is ___
13.3

====

- Test protocol: Phase 1 clinical study, pharmacokinetics of granisetron after intravenous and intranasal administration
- Type: in vivo, human
- Stated conditions: human, plasma, inhaled or intranasal; intranasal 1.0 mg (TRG capsule, single nostril), healthy male volunteers, mean
- Procedure: This was an open-label safety and PK study conducted at a single site in which healthy volunteers, at weekly intervals, were given the reference intravenous dose, followed by three single escalating nasal doses of TRG at weekly intervals. […] The following PK parameters were tested: AUC0-last (ng·h/mL), AUCinf (ng·h/mL), Tmax (hours), Cmax (ng/mL), T1/2 (hours), clearance, and volume of distribution. No efficacy variables were assessed in this safety and PK study. […]
Recorded endpoint: AUC(0-t) (ng·h/mL)
Numeric only. Scale: ng·h/mL

Fill in: AUC(0-t) of CN1C2CCCC1CC(NC(=O)c1nn(C)c3ccccc13)C2 (stereo not shown) [Granisetron] is ___
105

====

- Test protocol: Phase 1 clinical study, pharmacokinetics of granisetron after intravenous and intranasal administration
- Type: in vivo, human
- Stated conditions: human, plasma, inhaled or intranasal; intranasal 2.0 mg (TRG capsule, single nostril), healthy male volunteers, mean; read-out: T1/2 (converted)
Recorded endpoint: half-life (h)
Numeric only. Scale: h

Fill in: half-life of CN1C2CCCC1CC(NC(=O)c1nn(C)c3ccccc13)C2 (stereo not shown) [Granisetron] is ___
9.29

====

- Test protocol: Phase 1 clinical study, pharmacokinetics of granisetron after intravenous and intranasal administration
- Type: in vivo, human
- Stated conditions: human, plasma, inhaled or intranasal; intranasal 0.5 mg (TRG capsule, single nostril), healthy male volunteers, mean
Recorded endpoint: AUC(0-t) (ng·h/mL)
Numeric only. Scale: ng·h/mL

Fill in: AUC(0-t) of CN1C2CCCC1CC(NC(=O)c1nn(C)c3ccccc13)C2 (stereo not shown) [Granisetron] is ___
46.9
